# target-of-assay: HK2 (Homo sapiens, UniProt P52789)
# Construct: purchased Abcam ab211114
# Sequence (P52789 whole entry): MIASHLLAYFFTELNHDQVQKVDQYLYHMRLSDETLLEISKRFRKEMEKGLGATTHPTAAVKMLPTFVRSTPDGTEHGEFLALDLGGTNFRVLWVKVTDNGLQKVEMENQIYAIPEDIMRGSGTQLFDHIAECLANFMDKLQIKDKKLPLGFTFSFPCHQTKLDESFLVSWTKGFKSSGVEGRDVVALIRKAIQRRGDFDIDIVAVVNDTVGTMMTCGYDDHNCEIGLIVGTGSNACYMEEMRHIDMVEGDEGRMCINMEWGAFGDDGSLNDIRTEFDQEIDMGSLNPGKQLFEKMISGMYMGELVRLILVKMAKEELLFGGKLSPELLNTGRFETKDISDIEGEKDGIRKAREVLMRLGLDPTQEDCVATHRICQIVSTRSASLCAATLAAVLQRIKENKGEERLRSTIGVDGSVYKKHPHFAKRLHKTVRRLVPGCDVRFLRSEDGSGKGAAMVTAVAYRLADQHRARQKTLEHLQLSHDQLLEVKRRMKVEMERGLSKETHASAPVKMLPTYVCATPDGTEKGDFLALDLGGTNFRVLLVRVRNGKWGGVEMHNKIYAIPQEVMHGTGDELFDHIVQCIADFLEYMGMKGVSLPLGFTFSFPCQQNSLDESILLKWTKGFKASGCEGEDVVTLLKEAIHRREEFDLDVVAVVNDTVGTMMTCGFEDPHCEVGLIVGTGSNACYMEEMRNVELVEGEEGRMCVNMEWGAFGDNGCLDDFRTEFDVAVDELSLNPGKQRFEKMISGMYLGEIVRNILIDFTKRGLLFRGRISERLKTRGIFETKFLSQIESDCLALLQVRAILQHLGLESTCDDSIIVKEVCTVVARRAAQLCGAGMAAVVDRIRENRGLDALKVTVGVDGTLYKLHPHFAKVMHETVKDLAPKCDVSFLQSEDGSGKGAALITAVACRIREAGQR
# assay-summary: HK2 enzyme inhibition assay (Abcam kit ab211114)
# Format: biochemical
# run-conditions: read-out: IC50 against HK2
readout: IC50 (nM)
Answers are plain numbers, in nM.

Kindly note the recorded IC50 for COc1ccc(CNC(=O)c2nc3ccccc3s2)cc1O , which is 2940

---

# assay-summary: Cytotoxicity in normal HFF1 cells
# Assay type: cell-based, human
# run-conditions: human, HFF1 cells (normal)
readout: CC50

Quick note, CC50 for COc1ccc(CNC(=O)c2nc3ccccc3s2)cc1O landed at > 100 µM
